Recorded MIC by entry
Test system: Staphylococcus aureus
Assay: Antibacterial activity against Staphylococcus aureus
Assay type: functional
The reply should be a number in µg/mL, with the unit left off.

>  <record.smiles>
COc1ccc2nc(CN3CCN(c4cc5c(cc4F)c(=O)c(C(=O)O)cn5-c4ccc(F)cc4)CC3)[nH]c(=O)c2c1

>  <experimental.system>
Staphylococcus aureus

>  <MIC [µg/mL]>
0.125

$$$$

# ---- query molecule ----
Please fill in: MIC reported for O=C(O)c1cn(C2CC2)c2cc(N3CCN(Cn4nc(-c5cccnc5)oc4=S)CC3)c(F)cc2c1=O = 0.031

====

Test system: Pseudomonas aeruginosa
Assay: Antibacterial activity against Pseudomonas aeruginosa
Format: functional
measurement.name: MIC (mg/L)
I only need the number, in mg/L, no unit after it.

Reference set, count: 3
>  <compound>
CCn1cc(C(=O)O)c(=O)c2cc(F)c(N3CCN(C(=O)CN4C(=O)S/C(=C\c5ccc(F)cc5)C4=O)CC3)cc21

>  <MIC, mg/L>
0.25

$$$$
>  <compound>
CCn1cc(C(=O)O)c(=O)c2cc(F)c(N3CCN(C(=O)CN4C(=O)S/C(=C\c5ccccc5)C4=O)CC3)cc21

>  <MIC, mg/L>
0.5

$$$$
>  <compound>
O=C(O)c1cn(C2CC2)c2cc(N3CCNCC3)c(F)cc2c1=O [CIPROFLOXACIN]

>  <MIC, mg/L>
0.012

$$$$

// next item, MIC requested
# lookup: CCn1cc(C(=O)O)c(=O)c2cc(F)c(N3CCN(C(=O)CN4C(=O)S/C(=C\c5ccc(Cl)cc5Cl)C4=O)CC3)cc21 on Pseudomonas aeruginosa, MIC = 0.25

====

# MIC listing for each entry below
System: Staphylococcus aureus
Test: Antibacterial activity against Staphylococcus aureus
Format: functional

>  <record.smiles>
COc1ccc(C(=O)N2CCC[C@@H]3CN(c4c(F)cc5c(=O)c(C(=O)O)cn(C6CC6)c5c4OC)C[C@@H]32)cc1

>  <experimental.system>
Staphylococcus aureus

>  <MIC>
≤ 1.23 µg/mL

$$$$
>  <record.smiles>
COc1c(N2C[C@H]3CCCN(Cc4ccc(F)cc4)[C@H]3C2)c(F)cc2c(=O)c(C(=O)O)cn(C3CC3)c12

>  <experimental.system>
Staphylococcus aureus

>  <MIC>
< 2.39 µg/mL

$$$$
>  <record.smiles>
COc1c(N2C[C@H]3CCCN(Cc4ccc(Cl)cc4)[C@H]3C2)c(F)cc2c(=O)c(C(=O)O)cn(C3CC3)c12

>  <experimental.system>
Staphylococcus aureus

>  <MIC>
< 2.39 µg/mL

$$$$

Measured MIC (Staphylococcus aureus), entry COc1c(N2C[C@H]3CCCN(S(=O)(=O)c4ccc(C)cc4)[C@H]3C2)c(F)cc2c(=O)c(C(=O)O)cn(C3CC3)c12 : < 2.42 µg/mL

====

# MIC annotations
Test system: Enterococcus faecalis
Test: Antibacterial activity against Enterococcus faecalis
Type: functional

>  <record.smiles>
COc1ccc(CN2CCC[C@@H]3CN(c4c(F)cc5c(=O)c(C(=O)O)cn(C6CC6)c5c4OC)C[C@@H]32)cc1

>  <MIC>
< 2.39 µg/mL

$$$$
>  <record.smiles>
COc1c(N2C[C@H]3CCCN(S(=O)(=O)c4ccccc4)[C@H]3C2)c(F)cc2c(=O)c(C(=O)O)cn(C3CC3)c12

>  <MIC>
< 2.42 µg/mL

$$$$
>  <record.smiles>
COc1c(N2C[C@H]3CCCN(C(=O)c4ccc(Br)cc4)[C@H]3C2)c(F)cc2c(=O)c(C(=O)O)cn(C3CC3)c12

>  <MIC>
≤ 1.23 µg/mL

$$$$
>  <record.smiles>
COc1c(N2C[C@H]3CCCN(Cc4ccccc4)[C@H]3C2)c(F)cc2c(=O)c(C(=O)O)cn(C3CC3)c12

>  <MIC>
< 2.39 µg/mL

$$$$
>  <record.smiles>
COc1c(N2C[C@H]3CCCN(S(=O)(=O)c4ccc(Cl)cc4)[C@H]3C2)c(F)cc2c(=O)c(C(=O)O)cn(C3CC3)c12

>  <MIC>
< 2.42 µg/mL

$$$$
>  <record.smiles>
COc1c(N2C[C@H]3CCCN(S(=O)(=O)c4ccc(F)cc4)[C@H]3C2)c(F)cc2c(=O)c(C(=O)O)cn(C3CC3)c12

>  <MIC>
< 2.42 µg/mL

$$$$

Switching to the query record.
// field: MIC; key: COc1c(N2C[C@H]3CCCN(Cc4ccc([N+](=O)[O-])cc4)[C@H]3C2)c(F)cc2c(=O)c(C(=O)O)cn(C3CC3)c12 ; value = < 2.39 µg/mL

====

Tested on: Enterococcus faecalis
Experiment: Antibacterial activity against Enterococcus faecalis
Assay type: functional
measurement.name: MIC

Consider the worked cases shown below.
>  <record.smiles>
COc1c(N2C[C@H]3CCCN(C(=O)c4ccccc4)[C@H]3C2)c(F)cc2c(=O)c(C(=O)O)cn(C3CC3)c12

>  <MIC>
< 1.23 µg/mL

$$$$
>  <record.smiles>
COc1c(N2C[C@H]3CCCN(C(=O)c4ccc(F)cc4)[C@H]3C2)c(F)cc2c(=O)c(C(=O)O)cn(C3CC3)c12

>  <MIC>
≤ 1.23 µg/mL

$$$$
>  <record.smiles>
CCn1cc(C(=O)O)c(=O)c2cc(F)c(N3CCNCC3)cc21

>  <MIC>
< 0.24 µg/mL

$$$$

Could you now look at the following compound, please?
Reported MIC of COc1ccc(C(=O)N2CCC[C@@H]3CN(c4c(F)cc5c(=O)c(C(=O)O)cn(C6CC6)c5c4OC)C[C@@H]32)cc1 : ≤ 1.23 µg/mL

====

# MIC values compiled below
System: Pseudomonas aeruginosa
Assay: Antibacterial activity against Pseudomonas aeruginosa
Assay type: functional
Numeric answer only, unit µg/mL assumed.

Pseudomonas aeruginosa assay, molecule O=C(CSC(=S)N1CCN(c2cc3c(cc2F)c(=O)c(C(=O)O)cn3C2CC2)CC1)Nc1ccccc1Cl , recorded MIC = 0.024

With Pseudomonas aeruginosa as the test system, C=CCn1c(SCC(=O)N2CCN(c3cc4c(cc3F)c(=O)c(C(=O)O)cn4C3CC3)CC2)nnc1-c1ccccc1 showed MIC of 1.42

Known value: Pseudomonas aeruginosa MIC of the molecule CCn1cc(C(=O)O)c(=O)c2cc(F)c(N3CCN(C(=O)CN4C(=O)S/C(=C\c5ccc(N(C)C)cc5)C4=O)CC3)cc21 equals 0.25

====

Form field: MIC (one value per entry).
Tested on: Staphylococcus aureus
Experiment: Antibacterial activity against Staphylococcus aureus
Assay type: functional
Just the number please, in µg/mL, no unit attached.

>  <record.smiles>
CCn1cc(C(=O)O)c(=O)c2cc(F)c(N3CCN(Cc4nnc(-c5ccccc5Cl)o4)CC3)cc21

>  <value.units>
µg/mL

>  <recorded.number>
0.25

$$$$

Consider now this further molecule.
Data point: O=C(O)c1cn(C2CC2)c2cc(N3CCNCC3)c(F)cc2c1=O ; MIC = 0.015

====

Test system: Bacillus subtilis
Test: Antibacterial activity against Bacillus subtilis
Assay type: functional
measurement.name: MIC (µg/mL)
Give your result in µg/mL as a bare value.

>  <compound>
COc1c(N2CCN(/N=N/c3nc(C)cc(C)n3)CC2)c(F)cc2c(=O)c(C(=O)C(C(C)=O)C(C)=O)cn(C3CC3)c12

>  <experimental.system>
Bacillus subtilis

>  <value.units>
µg/mL

>  <recorded.number>
0.015

$$$$
>  <compound>
O=C(CN1CCN(c2cc3c(cc2F)c(=O)c(C(=O)O)cn3-c2ccc(F)cc2)CC1)c1ccc(Cl)cc1

>  <experimental.system>
Bacillus subtilis

>  <value.units>
µg/mL

>  <recorded.number>
0.5

$$$$
>  <compound>
O=C(O)c1cn(C2CC2)c2cc(N3CCN(Cn4nc(-c5cccnc5)oc4=S)CC3)c(F)cc2c1=O

>  <experimental.system>
Bacillus subtilis

>  <value.units>
µg/mL

>  <recorded.number>
0.031

$$$$
>  <compound>
CCOc1cc(OCC)nc(/N=N/N2CCN(c3c(F)cc4c(=O)c(C(=O)C(C(C)=O)C(=O)OC)cn(C5CC5)c4c3OC)CC2)n1 (stereo not given)

>  <experimental.system>
Bacillus subtilis

>  <value.units>
µg/mL

>  <recorded.number>
0.015

$$$$
>  <compound>
CCOc1cc(OCC)nc(/N=N/N2CCN(c3cc4c(cc3F)c(=O)c(C(=O)C(C(=O)OC)C(=O)OC)cn4C3CC3)CC2)n1

>  <experimental.system>
Bacillus subtilis

>  <value.units>
µg/mL

>  <recorded.number>
0.015

$$$$

Given item O=C(O)c1cn(C2CC2)c2cc(N3CCNCC3)c(F)cc2c1=O [CIPROFLOXACIN] , the value recorded as its MIC is 0.015

// field: MIC; key: CC(=O)C(C(C)=O)C(=O)c1cn(C2CC2)c2cc(N3CCN(/N=N/c4nc(C)cc(C)n4)CC3)c(F)cc2c1=O ; value = 0.015

# compound O=C(O)c1cn(C2CC2)c2cc(N3CCN(Cn4nc(-c5ccccn5)oc4=S)CC3)c(F)cc2c1=O ; its MIC = 0.031
